The measured values listed here are drawn from patent US20080044360A1.

# key: entry, value: % bound
# target: T1, human collagen type I, acid soluble, extracted from placenta (Sigma C7774) (human, UniProt P02452 162-1218; P08123 80-1119)
# T1 construct: tissue extract, gelled and dried in wells; also called dried human collagen; h-Collagen
# T1 sequence (P02452 162-1218 limits assumed, chain 1 of 2): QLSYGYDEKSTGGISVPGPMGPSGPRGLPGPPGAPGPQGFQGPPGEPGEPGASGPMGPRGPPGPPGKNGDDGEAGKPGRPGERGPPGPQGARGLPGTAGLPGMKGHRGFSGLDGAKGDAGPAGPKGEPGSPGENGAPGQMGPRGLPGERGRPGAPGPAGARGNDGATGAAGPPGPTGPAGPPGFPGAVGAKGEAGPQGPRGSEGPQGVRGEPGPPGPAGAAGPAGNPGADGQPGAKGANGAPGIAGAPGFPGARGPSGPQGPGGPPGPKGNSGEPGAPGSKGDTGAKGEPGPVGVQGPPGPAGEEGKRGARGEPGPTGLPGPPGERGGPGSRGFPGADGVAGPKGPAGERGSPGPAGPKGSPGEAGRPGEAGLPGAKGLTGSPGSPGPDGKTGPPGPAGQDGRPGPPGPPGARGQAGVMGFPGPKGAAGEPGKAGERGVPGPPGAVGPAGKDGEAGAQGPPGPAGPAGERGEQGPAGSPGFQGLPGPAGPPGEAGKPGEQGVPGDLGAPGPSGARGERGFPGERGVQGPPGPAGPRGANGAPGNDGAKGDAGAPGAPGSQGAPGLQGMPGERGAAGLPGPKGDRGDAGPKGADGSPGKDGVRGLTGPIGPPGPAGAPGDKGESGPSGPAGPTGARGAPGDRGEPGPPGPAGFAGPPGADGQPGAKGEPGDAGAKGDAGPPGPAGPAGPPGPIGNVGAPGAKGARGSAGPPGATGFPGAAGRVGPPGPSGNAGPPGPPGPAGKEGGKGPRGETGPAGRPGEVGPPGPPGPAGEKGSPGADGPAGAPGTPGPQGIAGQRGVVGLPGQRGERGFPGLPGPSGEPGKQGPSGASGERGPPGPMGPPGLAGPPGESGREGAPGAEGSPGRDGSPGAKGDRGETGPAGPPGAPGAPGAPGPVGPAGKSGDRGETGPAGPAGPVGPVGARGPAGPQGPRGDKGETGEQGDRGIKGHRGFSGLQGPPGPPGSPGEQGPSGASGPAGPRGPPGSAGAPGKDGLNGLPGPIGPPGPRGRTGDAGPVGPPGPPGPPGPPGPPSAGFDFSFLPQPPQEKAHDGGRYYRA
# T1 sequence (P08123 80-1119 limits assumed, chain 2 of 2): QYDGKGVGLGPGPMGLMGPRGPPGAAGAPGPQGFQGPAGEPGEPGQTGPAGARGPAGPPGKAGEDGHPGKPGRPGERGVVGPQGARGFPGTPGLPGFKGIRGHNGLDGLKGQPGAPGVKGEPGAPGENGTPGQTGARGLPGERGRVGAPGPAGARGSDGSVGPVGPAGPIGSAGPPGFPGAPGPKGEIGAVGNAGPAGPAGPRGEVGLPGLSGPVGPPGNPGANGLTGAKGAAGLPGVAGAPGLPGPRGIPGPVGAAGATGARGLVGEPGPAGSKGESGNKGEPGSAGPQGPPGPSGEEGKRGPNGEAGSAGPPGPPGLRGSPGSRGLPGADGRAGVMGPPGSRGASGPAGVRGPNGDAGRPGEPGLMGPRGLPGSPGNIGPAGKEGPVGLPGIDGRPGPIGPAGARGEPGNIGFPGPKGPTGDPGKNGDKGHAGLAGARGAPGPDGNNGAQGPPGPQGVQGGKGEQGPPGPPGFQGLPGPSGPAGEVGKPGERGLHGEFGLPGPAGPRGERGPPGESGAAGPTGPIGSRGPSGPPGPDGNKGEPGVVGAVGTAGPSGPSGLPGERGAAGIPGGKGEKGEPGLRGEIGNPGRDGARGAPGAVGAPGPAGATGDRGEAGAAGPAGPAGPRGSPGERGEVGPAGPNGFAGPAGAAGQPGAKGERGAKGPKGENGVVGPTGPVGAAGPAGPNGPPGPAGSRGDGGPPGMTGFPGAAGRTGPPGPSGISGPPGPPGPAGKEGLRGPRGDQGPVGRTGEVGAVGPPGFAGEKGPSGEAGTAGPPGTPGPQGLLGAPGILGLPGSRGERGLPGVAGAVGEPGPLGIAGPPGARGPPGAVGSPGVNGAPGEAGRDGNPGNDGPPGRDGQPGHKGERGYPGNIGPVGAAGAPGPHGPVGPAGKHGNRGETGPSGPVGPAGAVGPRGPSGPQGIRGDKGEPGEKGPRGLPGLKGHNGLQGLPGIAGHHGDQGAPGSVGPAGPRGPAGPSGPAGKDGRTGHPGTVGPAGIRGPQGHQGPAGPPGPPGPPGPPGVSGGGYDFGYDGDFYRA
# assay_remarks: dried collagen assay
Bridge positions count the residues as written; N and C are the ends. Square brackets hold non-standard residues; d marks the D form. Primed or numbered codes have the meaning given here. Side chains are listed from the residue outwards. Ends that are not written are not given here. * marks the point of attachment. Bpa = N[C@@H](Cc1ccc(C(=O)c2ccccc2)cc1)C(=O)O; Gd^D = GdDOTAGA (gadolinium DOTAGA chelate); Tyr(3-Cl) = N[C@@H](Cc1ccc(O)c(Cl)c1)C(=O)O; Bip = N[C@@H](Cc1ccc(-c2ccccc2)cc1)C(=O)O; Dip = N[C@H](C(=O)O)C(c1ccccc1)c1ccccc1; Gd^T(3) = GdDTPA attached via thiourea; Phe(4-F) = N[C@@H](Cc1ccc(F)cc1)C(=O)O; 2Nal = N[C@@H](Cc1ccc2ccccc2c1)C(=O)O; Bta = N[C@@H](Cc1csc2ccccc12)C(=O)O; 1,4 AMB(Gd^T) = not defined here; Pen = CC(C)(S)[C@H](N)C(=O)O; Gd^T = not defined here; Gd^T″ = GdDTPA-thiourea; Cbz = O=C(OCc1ccccc1)*
Your answer should be a plain number; it is taken to be in %.

Answered cases to consult:
{"binder": "Cbz-GQWHCTTRFPHHYCLYGK (disulfide 5-14 (inferred); not fully specified (residue 18)) [Compound ID 925]", "unit_label": "%", "% bound": 64}
{"binder": "{Gd^T″}-K(Gd^T″)WHCYTK(Gd^T″)FPHHYCVY[Bip] (disulfide 4-13) [Compound ID 1008]", "unit_label": "%", "% bound": 94}
{"binder": "{Gd^T″}-GK([Gly-Gd^T″])WHCYTYFPHHYCLYVK(Gd^T″) (disulfide 5-14 (inferred); not fully specified (C-terminus)) [Compound ID 989]", "unit_label": "%", "% bound": 67}
{"binder": "{Gd^T}-GQWHCTTRFPHH[dY]CLYG (disulfide 5-14 (inferred); not fully specified (C-terminus); reading uncertain) [Compound ID 864]", "unit_label": "%", "% bound": 64}

Return reported % bound; argument: {Gd^T″}-GK([Gly-Gd^T″])WHCYTK(Gd^T″)FPHHYCVYYY (disulfide 5-14 (inferred)) [Compound ID 1010] 92

// same read-out, input: {Gd^T″}-GQWHCTTD[Bpa]PHHYCLYG (disulfide 5-14) [Compound ID 882] 0

// same read-out, input: {Gd^T(3)}-GQWHCTTDFPHHYCL[2Nal]G (disulfide 5-14) [Compound ID 891] 79

// same read-out, input: {Gd^T″}-GQ[Bta]HCTTRFPHHYCLYG (disulfide 5-14) [Compound ID 868] 36

// same read-out, input: {Gd^T″}-GQWHCTT[Phe(4-F)]FPHHYCLYG (disulfide 5-14 (inferred)) [Compound ID 929] 27

// same read-out, input: {Gd^T″}-GQWHCTT[Tyr(3-Cl)]FPHH[dY]CLYG (disulfide 5-14 (inferred); not fully specified (C-terminus)) [Compound ID 916] 23

// same read-out, input: {Gd^T″}-GK([Gly-Gd^T″])WHCTTYFPHWYCLYG (disulfide 5-14 (inferred)) [Compound ID 948] 25

// same read-out, input: {Gd^D}-K(Gd^D)K(Gd^D)LWHCYTYFPHHYCVYG (disulfide 6-15 (inferred)) [Compound ID 1017] 25

// same read-out, input: {Gd^T″}-GK([Gly-Gd^T″])WHCTTYFPHH[Dip]CLYG (disulfide 5-14 (inferred); not fully specified) [Compound ID 968] 77

// same read-out, input: {Gd^T(3)}-GQWHCTTRFPHHY[Pen]LYG (disulfide 5-14; not fully specified (C-terminus)) [Compound ID 906] 13

// same read-out, input: {Gd^T″}-DWTC[Phe(4-CO2H)]GDEYTWHCNYE (disulfide 4-13 (inferred); not fully specified (C-terminus)) [Compound ID 828] 52

// same read-out, input: {Gd^T″}-GQWSCTTRFPHHYCLYG (disulfide 5-14 (inferred)) [Compound ID 870] 30

// same read-out, input: {Gd^T″}-GQWHCTTDFPHHYCL[Tyr(3-Cl)]G (disulfide 5-14 (inferred)) [Compound ID 892] 63

// same read-out, input: {Gd^T″}-GQWNCTTLFPHHYCLYG (disulfide 5-14 (inferred)) [Compound ID 922] 68

// same read-out, input: {Gd^T″}-GK([Gly-Gd^T″])WHCYTYFPHHYCLYYK(Gd^T″) (disulfide 5-14 (inferred); not fully specified (C-terminus)) [Compound ID 987] 62

// same read-out, input: {Gd^T″}-GQWHCTTYFPHHYCLYG-{1,4 AMB(Gd^T)} (disulfide 5-14 (inferred); reading uncertain) [Compound ID 816] 48
